# Assay method text: LNP size and PDI by dynamic light scattering
# Assay type: physicochemical
# Experimental conditions: mRNA LNP, cationic lipid/DSPC/cholesterol/PEG-lipid 50:10:38.5:1.5
Experimental endpoint: Size (nm)

CCCCCCCC(C(=O)NCCCCCCCCCC(=O)OC(CCCCCC)CCCCCC)N(CCCN1CCCC1)C(=O)CCCCCCCCCC(=O)OCC1CC=CCC1 (stereo not drawn): 64.58
CCCCCCCCNC(=O)C(CCCCCCCC)N(CCC1CCCN1C)C(=O)CCCCCCC(=O)OC(CCCCCCCC)CCCCCCCC (stereo not drawn): 94.21
CCCCCCC(CCCCCC)OC(=O)CCCCCCCCCNC(=O)C(CCCCCCCCCC(=O)OC(CCCCCC)CCCCCC)N(CCCN(CCO)CCO)C(=O)CCCN(CC)CC (stereo not drawn): 95.73
CCCCCCC(CCCCCC)OC(=O)CCCCCCCCCNC(=O)C(CCCCCCCCCC(=O)OC(CCCCCC)CCCCCC)N(CCCN(CCO)CCO)C(=O)CCCN(C)CCO (stereo not drawn) [Compound E2]: 78.64
CCCCCCCC(C(=O)NCCCCCCCCCC(=O)OC(CCCCCC)CCCCCC)N(CCN1CCN(CCO)CC1)C(=O)CCCCCCCCCC(=O)OC(CCCCCC)CCCCCC (stereo not drawn): 57.19
CCCCCCCCC(C(=O)NCCCCCCCCCC(=O)OC(CCCCCC)CCCCCC)N(CCCN1CCCC1)C(=O)CCCCCCCCCC(=O)OC(CCCCCC)CCCCCC (stereo not drawn): 82.96
CCCCCCCCC(CCCCCC)COC(=O)CCCCCNC(=O)C(CCCCC)N(CCCN1CCCC1)C(=O)CCCCCC(=O)OCC(CCCCCC)CCCCCCCC (stereo not drawn): 79.00
CCCCCCCCC(C(=O)NCCCCCCCCCC(=O)OCCCCCC)N(CCCN(C)C)C(=O)CCCCCCCCCC(=O)OCCCCCC (stereo not drawn): 78.42
CCCCCCCC(C(=O)NCCCCCCCCCC(=O)OC(CCCCCC)CCCCCC)N(CCCN(CCO)C1CCCCC1)C(=O)CCCCCCCCCC(=O)OC(CCCCCC)CCCCCC (stereo not drawn): 76.67
CCCCCCC(CCCCCC)OC(=O)CCCCCCCCCNC(=O)C(CCCCCCCCCC(=O)OC(CCCCCC)CCCCCC)N(CCCN1CCN(C)CC1)C(=O)CCCN1CCN(C)CC1 (stereo not drawn): 91.81
CCCCCCCCNC(=O)C(CCCCCCCC)N(CCCN(C)C)C(=O)CCCCCC(=O)NC(CCCCCCC)CCCCCCC (stereo not drawn): 85.33
CCCCCCCC(C(=O)NCCCCCCCCCC(=O)OC(CCCCCC)CCCCCC)N(CCCN(CCO)CCO)C(=O)CCCCCCCCCC(=O)OCC1CC=CCC1 (stereo not drawn): 55.64
CCCCCCCC(C(=O)NCCCCCCCCCC(=O)OC(CCCCCC)CCCCCC)N(CCN(CO)CO)C(=O)CCCCCCCCCC(=O)OC(CCCCCC)CCCCCC (stereo not drawn): 58.86
CCCCCCCC(C(=O)NCCCCCCCCCC(=O)OC(CCCCCC)CCCCCC)N(CCCN1CCCC1)C(=O)CCCCCCCCCC(=O)OC(CCCCCC)CCCCCC (stereo not drawn): 78.3
CCCCCCCCCCCOC(=O)CCCCCN(CCO)CCCCCCCC(=O)OC(CCCCCCCC)CCCCCCCC [SM-102, reference compound]: 89.08

// provenance: patent US20260078099A1
